Readout Type: melting point (°C)
State the answer as a number, implicitly in °C.

# count of solved cases: 3
CCc1c(C(=O)NN2CCOCC2)nc(-c2ccc(Cl)cc2Cl)n1-c1ccc(Cl)cn1 : 223
Cc1c(C(=O)NC2CCCCC2)nc(-c2ccc(Cl)cc2F)n1-c1ccc(Cl)cc1 : 188
CCCCCNC(=O)c1nc(-c2ccc(Cl)cc2F)n(-c2ccc(Cl)cc2)c1C : 115

# input Supply recorded melting point for `O=C(NC1CCCCC1)c1cn(-c2ccc(Cl)cc2)c(-c2ccc(Cl)cc2C(F)(F)F)n1` here.
# output 172

----------
target: human cannabinoid CB1 receptor (Homo sapiens); experiment: biochemical; type: binding; set-up: expressed in transfected cells; host or cells: Chinese hamster ovary (CHO) cells, membrane preparation; settings: hCB1 pKi, [3H]CP-55,940 radioligand; CHO cell membranes stably transfected with human CB1
Each entry below carries its recorded pKi.
// field semantics: pKi = negative decimal log of concentration (mol/L)

# count of solved cases: 3
O=C(NN1CCCCC1)c1cn(-c2ccc(Cl)cc2)c(-c2ccc(Cl)cc2Cl)n1 : 7.90
Cc1c(C(=O)NC2CCCCCC2)nc(-c2ccc(Cl)cc2Cl)n1-c1ccc(Cl)cc1 : 8.10
Cc1c(C(=O)NCc2ccc(C(F)(F)F)cc2)nc(-c2ccc(Cl)cc2Cl)n1-c1ccc(Cl)cc1 : 7.00

# input Fetch value of pKi on human cannabinoid CB1 receptor (Homo sapiens) for `Cc1c(C(=O)N(C)C)nc(-c2ccc(Cl)cc2Cl)n1-c1ccc(Cl)cc1` .
# output 8.30

----------
Readout Type: melting point

Cc1c(C(=O)NC2CCCCC2)nc(-c2ccc(Cl)cc2C(F)(F)F)n1-c1ccc(Cl)cc1 : 212 °C
O=C(NC12CC3CC(CC(C3)C1)C2)c1cn(-c2ccc(Cl)cc2)c(-c2ccc(Cl)cc2C(F)(F)F)n1 : 288 °C
COc1cc(Cl)ccc1-c1nc(C(=O)NC2CCCCC2)c(C)n1-c1ccc(Cl)cc1 : 201 °C

# input Supply recorded melting point for `CCc1c(C(=O)NC2CCCCC2)nc(-c2ccc(C)n2C)n1-c1ccccc1` here.
# output 195 to 196 °C

# input Supply recorded melting point for O=C(NN1CCCCC1)c1nc(-c2ccc(Cl)cc2Cl)n(-c2ccc(Cl)cc2)c1CO [Example 115] here.
# output 212 to 214 °C

# input Supply recorded melting point for `CCc1c(C(=O)NC2CCCCC2)nc(-c2cc(Cl)ccc2Cl)n1-c1ccccc1` here.
# output 198 to 199 °C

# input Supply recorded melting point for `COc1cc(Cl)ccc1-c1nc(C(=O)NN2CCCCC2)c(C)n1-c1ccc(Cl)cc1` here.
# output > 256 °C

# input Supply recorded melting point for COc1ccc(-n2c(-c3ccc(Cl)cc3Cl)nc(C(=O)NN3CCCCC3)c2C)cc1 [Example 63] here.
# output > 90 °C (dec.)

# input Supply recorded melting point for O=C(NC1CCCCC1)c1cn(-c2ccc(F)cc2)c(-c2ccc(Cl)cc2Cl)n1 [Example 32] here.
# output 184 to 185 °C

----------
Biological target: UniProtKB P21554
Assay: biochemical
Format: binding
Set-up: expressed in transfected cells; host or cells: Chinese hamster ovary (CHO) cells, membrane preparation
Settings: hCB1 pKi, [3H]CP-55,940 radioligand; CHO cell membranes stably transfected with human CB1
Method: After incubation of a freshly prepared cell membrane preparation with the [^3H]-ligand, with or without addition of compounds of the invention, separation of bound and free ligand was performed by filtration over glassfiber filters. Radioactivity on the filter was measured by liquid scintillation counting.
Readout Type: pKi
// field semantics: pKi = negative decimal log of concentration (mol/L)

CCCCCNC(=O)c1nc(-c2ccc(Cl)cc2OC)n(-c2ccc(Cl)cc2)c1C [Example 59] : 6.30
CCc1c(C(=O)NC2CCCCC2)nc(-c2ccc(Cl)cc2Cl)n1-c1ccc(Br)cc1 [Example 20] : 7.00
Cc1c(C(=O)NN2CCCCC2)nc(-c2cc(Cl)ccc2Cl)n1-c1ccccc1 [Example 95] : 7.20
Cc1c(C(=O)NN2CCCCC2)nc(-c2ccc(Cl)cc2)n1-c1ccc(Cl)cc1Cl [Example 10] : 6.50

# input Supply recorded pKi for Cc1c(C(=O)NN2CCCCC2)nc(-c2ccccc2Cl)n1-c1cccc(F)c1 [Example 71] here.
# output 7.40

# input Supply recorded pKi for Cc1c(C(=O)NN2CCCCCC2)nc(-c2ccc(Cl)cc2Cl)n1-c1ccc(Cl)cn1 [Example 53] here.
# output 7.30

# input Supply recorded pKi for Cc1c(C(=O)NCCF)nc(-c2ccc(Cl)cc2Cl)n1-c1ccc(Cl)cc1 [Example 85] here.
# output 7.60

# input Supply recorded pKi for COc1ccc(-n2cc(C(=O)NC3CCCCC3)nc2-c2ccc(Cl)cc2Cl)cc1 [Example 36] here.
# output 6.80

----------
Each entry below carries its recorded melting point.
State the answer as a number, implicitly in °C.

# input Supply recorded melting point for `CCCCCNC(=O)c1cn(-c2cccnc2)c(-c2ccc(Cl)cc2Cl)n1` here.
# output 117

# input Supply recorded melting point for Cc1c(C(=O)NC2CCCCC2)nc(-c2cc(Cl)ccc2Cl)n1-c1ccccc1 [Example 96] here.
# output 236

----------
molecular target: human cannabinoid CB1 receptor (Homo sapiens, UniProt P21554); assay: biochemical; type: binding; parameters: expressed in transfected cells; host or cells: Chinese hamster ovary (CHO) cells, membrane preparation; conditions: [3H]CP-55,940 radioligand; CHO cell membranes stably transfected with human CB1; read-out: hCB1 pKi (converted)
Sequence (P21554 whole entry): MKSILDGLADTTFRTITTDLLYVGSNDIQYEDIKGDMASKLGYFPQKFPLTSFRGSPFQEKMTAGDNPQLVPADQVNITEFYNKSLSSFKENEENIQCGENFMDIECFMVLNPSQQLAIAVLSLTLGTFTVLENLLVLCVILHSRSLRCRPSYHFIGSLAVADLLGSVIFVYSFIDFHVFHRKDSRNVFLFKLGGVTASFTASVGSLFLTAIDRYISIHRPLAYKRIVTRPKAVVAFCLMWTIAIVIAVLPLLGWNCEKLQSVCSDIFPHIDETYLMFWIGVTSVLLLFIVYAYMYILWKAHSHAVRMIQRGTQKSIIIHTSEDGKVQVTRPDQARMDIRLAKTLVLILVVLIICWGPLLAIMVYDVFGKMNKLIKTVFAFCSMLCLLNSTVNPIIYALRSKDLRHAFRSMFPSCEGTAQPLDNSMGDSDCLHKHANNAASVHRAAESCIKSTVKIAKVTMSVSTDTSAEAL
Each entry below carries its recorded Ki.
State the answer as a number, implicitly in nM.

# count of solved cases: 5
Cc1c(C(=O)NCc2ccc(F)cc2)nc(-c2ccc(Cl)cc2Cl)n1-c1ccc(Cl)cn1 : 158
Cc1c(C(=O)NC2CCCCC2)nc(-c2ccc(Cl)cc2Cl)n1-c1ccc(C(F)(F)F)cc1 : 158
COc1ccc(-n2c(-c3ccc(Cl)cc3Cl)nc(C(=O)NC3CCCCC3)c2C)cc1 : 126
COc1cc(Cl)ccc1-c1nc(C(=O)NC2CCCCC2)cn1-c1ccc(Cl)cc1 : 398
Cc1c(C(=O)NCCc2ccc(F)cc2)nc(-c2ccccc2Cl)n1-c1cccc(F)c1 : 398

# input Supply recorded Ki for `O=C(NN1CCCCCC1)c1cn(-c2ccc(Br)cc2)c(-c2ccc(Cl)cc2Cl)n1` here.
# output 126

# input Supply recorded Ki for `CCc1c(C(=O)NN2CCOCC2)nc(-c2ccc(Cl)cc2Cl)n1-c1ccc(Cl)cn1` here.
# output 251

# input Supply recorded Ki for `O=C(NN1CCCCC1)c1cn(-c2ccc(F)cc2)c(-c2ccc(Cl)cc2Cl)n1` here.
# output 200

----------
Each entry below carries its recorded Ki.
biological target: human cannabinoid CB1 receptor (Homo sapiens); experiment: biochemical; format: binding; design: expressed in transfected cells; host or cells: Chinese hamster ovary (CHO) cells, membrane preparation; conditions: hCB1 pKi, [3H]CP-55,940 radioligand; CHO cell membranes stably transfected with human CB1
State the answer as a number, implicitly in nM.

COc1cc(Cl)ccc1-c1nc(C(=O)NN2CCCCC2)cn1-c1ccc(Cl)cc1 [Example 28] : 63.1
Cc1c(C(=O)NOC(C)(C)C)nc(-c2ccc(Cl)cc2Cl)n1-c1ccc(Cl)cc1 [Example 13] : 79.4
CSc1c(C(=O)NC2CCCCC2)nc(-c2ccc(Cl)cc2Cl)n1-c1ccc(Cl)cc1 [Example 121] : 63.1

We now examine a further molecule.
# input Supply recorded Ki for O=C(NC1CCCCC1)c1cn(-c2ccc(Cl)cc2)c(-c2ccc(Cl)cc2Cl)n1 [Example 5] here.
# output 79.4

----------
Each entry below carries its recorded melting point.

# count of solved cases: 5
Cc1c(C(=O)NC2CCCCC2)nc(-c2ccccc2Cl)n1-c1cccc(F)c1 : 180 to 182.5 °C
CCN(CC)C(=O)c1cn(-c2ccc(Cl)cc2)c(-c2ccc(Cl)cc2Cl)n1 : 177 to 179 °C
Cc1c(C(=O)NCCF)nc(-c2ccc(Cl)cc2Cl)n1-c1ccc(Cl)cc1 : 128 to 133 °C
CCc1c(C(=O)NN2CCCCC2)nc(-c2ccc(Cl)cc2Cl)n1-c1ccc(Br)cc1 : > 140 °C
O=C(NN1CCCCCC1)c1cn(-c2ccc(Br)cc2)c(-c2ccc(Cl)cc2Cl)n1 : 201 to 204 °C

# input Supply recorded melting point for `O=C(NC1CCCCC1)c1nc(-c2ccc(Cl)cc2Cl)n(-c2ccc(Cl)cc2)c1I` here.
# output 226 to 230 °C

----------
Target: UniProt:P21554
Assay: Cannabinoid CB1 antagonistic activity, forskolin-induced cAMP accumulation in CHO cells
Format: cell-based
Design: expressed in transfected cells; host or cells: CHO cells
Conditions: antagonism of CB1 agonist (e.g. CP-55,940 or (R)-WIN-55,212-2) effect on forskolin-induced cAMP accumulation; CHO cells expressing human CB1
Description: The cannabinoid CB1 antagonistic activity of compounds of the invention was determined by functional studies using CHO cells in which human cannabinoid CB1 receptors were stably expressed. Adenylyl cyclase was stimulated using forskolin and measured by quantifying the amount of accumulated cyclic AMP. Concomitant activation of CB1 receptors by CB1 receptor agonists (e.g. CP-55,940 or (R)-WIN-55,212–2) can attenuate the forskolin-induced accumulation of cAMP in a concentration-dependent manner. […]
Readout Type: hCB1 pA2
Output: the number by itself.

# count of solved cases: 3
CS(=O)(=O)c1c(C(=O)NN2CCCCC2)nc(-c2ccc(Cl)cc2Cl)n1-c1ccc(Cl)cc1 : 8.5
Cc1c(C(=O)NC2CCCCCC2)nc(-c2ccc(Cl)cc2Cl)n1-c1ccc(Cl)cc1 : 9.1
Cc1c(C(=O)NN2CCCC2)nc(-c2ccc(Cl)cc2Cl)n1-c1ccc(Cl)cc1 : 8.2

We now examine a further compound.
# input Supply recorded hCB1 pA2 for `Cc1c(C(=O)NCc2ccc(C(F)(F)F)cc2)nc(-c2ccc(Cl)cc2Cl)n1-c1ccc(Cl)cc1` here.
# output 8.9
